System: SN12C renal
protocol_details: NCI tumour cell line growth inhibition, 48 h
A collection of compounds and their measured TGI
measured_parameter: TGI

>>> print(df.to_string())
                                   compound  system_name  experimental_result
0  CCCCCCCCCCCCCC(=O)OCC1OC(n2cc(F)c(=O)[nH]c2=O)C(N)C(OC(=O)CCCCCCCCCCCCC)C1O (configuration not stated)  SN12C renal             > 100 µM
1              NC(=S)NS(=O)(=O)c1ccc(F)cc1F  SN12C renal             > 100 µM
2  CN(C)c1ccc(C2ON=C(c3ccccc3)N2C23CC4CC(CC(C4)C2)C3)cc1 (configuration not stated)  SN12C renal              > 10 µM
3          c1ccc(C2=Nc3cccc4cccc(c34)N2)cc1  SN12C renal             > 100 µM
4  COc1ccc(NC(=O)CCc2cc(C(C)(C)C)n[nH]2)cc1  SN12C renal             > 100 µM
5  O=C(NNC(=S)NCc1ccccc1)C12CC3CC(CC(C3)C1)C2  SN12C renal             > 100 µM
6  CC(=O)O[C@@H]1O[Si](C(C)(C)C)(C(C)(C)C)[C@H](C)[C@H]1C  SN12C renal             > 100 µM
